# assay.details: Half life in C57BL/6J mouse at 10 mg/kg, po
# Type: ADME, organism-based
# run.parameters: in vivo
parameter.measured: half-life

>>> result("COc1ccc(C(F)(F)F)cc1COc1ccc(CCC(=O)O)cc1C")
"1.7 h"

* * *

# assay.details: Oral bioavailability in C57BL/6J mouse at 10 mg/kg
# Assay type: ADME, organism-based
# run.parameters: in vivo
parameter.measured: bioavailability (%)

>>> result_number("Cc1ccc(Cl)c(COc2ccc(CCC(=O)O)cc2C)c1")
46
>>> result_number("Cc1cc(C)cc(COc2ccc(CCC(=O)O)cc2C)c1")
55
>>> result_number("Cc1cc(COc2ccc(CCC(=O)O)cc2C)cc(OC(C)C)c1")
20
>>> result_number("Cc1cccc(COc2ccc(CCC(=O)O)cc2C)c1")
39
>>> result_number("COc1ccc(C(F)(F)F)cc1COc1ccc(CCC(=O)O)cc1C")
110

* * *

# assay.details: AUC in C57BL/6J mouse at 10 mg/kg, po
# Type: ADME, organism-based
# run.parameters: in vivo
Please enter 1 where AUC is greater than or equal to 4000 ng·h/mL, and 0 where it is lower.

>>> class("Cc1cc(C)cc(COc2ccc(CCC(=O)O)cc2C)c1")
0
>>> class("Cc1ccc(Cl)c(COc2ccc(CCC(=O)O)cc2C)c1")
1
>>> class("COc1ccc(C(F)(F)F)cc1COc1ccc(CCC(=O)O)cc1C")
1
>>> class("Cc1cccc(COc2ccc(CCC(=O)O)cc2C)c1")
1
>>> class("Cc1cc(COc2ccc(CCC(=O)O)cc2C)cc(OC(C)C)c1")
0

* * *

# measured.target: Free fatty acid receptor 3 (Homo sapiens, UniProt O14843)
# Sequence (O14843 whole entry): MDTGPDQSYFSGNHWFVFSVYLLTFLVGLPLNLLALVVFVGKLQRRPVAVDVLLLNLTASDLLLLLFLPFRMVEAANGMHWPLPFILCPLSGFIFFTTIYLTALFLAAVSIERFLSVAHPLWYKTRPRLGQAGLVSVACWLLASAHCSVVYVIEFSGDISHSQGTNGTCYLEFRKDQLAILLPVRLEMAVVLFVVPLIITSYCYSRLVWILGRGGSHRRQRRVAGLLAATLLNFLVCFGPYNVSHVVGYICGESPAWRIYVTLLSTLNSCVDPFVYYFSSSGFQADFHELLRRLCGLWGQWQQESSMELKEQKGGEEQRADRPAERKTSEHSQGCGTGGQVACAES
# assay.details: Agonist activity at human FFA3 receptor by FLIPR assay
pEC50: −log10 of the molar value.
parameter.measured: pEC50

>>> result("COc1ccc(C(F)(F)F)cc1COc1ccc(CCC(=O)O)cc1C")
"< 4.30"

* * *

# assay.details: Clearance in C57BL/6J mouse at 3 mg/kg, iv
# Format: ADME, organism-based
# run.parameters: in vivo
parameter.measured: clearance

>>> result("Cc1cc(COc2ccc(CCC(=O)O)cc2C)cc(OC(C)C)c1")
"2.58 L/h/kg"
>>> result("Cc1ccc(Cl)c(COc2ccc(CCC(=O)O)cc2C)c1")
"1.08 L/h/kg"
>>> result("Cc1cc(C)cc(COc2ccc(CCC(=O)O)cc2C)c1")
"2.1 L/h/kg"
>>> result("Cc1cccc(COc2ccc(CCC(=O)O)cc2C)c1")
"0.72 L/h/kg"

* * *

Parameter Cmax: see the listing below.
# assay.details: Cmax in C57BL/6J mouse at 10 mg/kg, po
# Type: ADME, organism-based
# Parameters: dose 10 mg/kg, route oral
# run.parameters: in vivo
parameter.measured: Cmax (ng/mL)

>>> result_number("COc1ccc(C(F)(F)F)cc1COc1ccc(CCC(=O)O)cc1C")
6780
>>> result_number("Cc1ccc(Cl)c(COc2ccc(CCC(=O)O)cc2C)c1")
3030
>>> result_number("Cc1cc(C)cc(COc2ccc(CCC(=O)O)cc2C)c1")
2630
>>> result_number("Cc1cc(COc2ccc(CCC(=O)O)cc2C)cc(OC(C)C)c1")
687
>>> result_number("Cc1cccc(COc2ccc(CCC(=O)O)cc2C)c1")
3080
